Data provenance: patent EP1206248B1

- protocolNotes: Solubility in water
- conditionSummary: water, pH 8, water
measure: solubility

Lookup: Write down solubility measured for item CC(=O)N(C)c1cccc(-c2ccnc3c(C(=O)c4cccs4)cnn23)c1
Found: 20 to 30 µg/mL
